# procedure details: Rat brain disposition after oral gavage
# Format: in vivo, male Sprague-Dawley rats
# condition summary: male, Sprague-Dawley, brain, oral 5 mg/kg, 1 h, mean ± stdev, n=3
So I've got a bunch of molecules here, and I need their Kp uu at 1 h values.
Write no unit; give the number alone.

// query Name the reported Kp uu at 1 h value associated with the molecule `Cc1c2c(nn1-c1cccnc1OC1CC1)OCCCn1nc(Cl)c3cnc(nc31)N2`
// result 0.32

// query What about this molecule? `Cc1c2c(nn1-c1cccnc1C(C)(F)F)OCCCn1nc(Cl)c3cnc(nc31)N2`
// result 0.49

// query What about this molecule? `COc1nc(C)ccc1-n1nc2c(c1C)Nc1ncc3c(Cl)nn(c3n1)CCCO2`
// result 0.74

// query What about this molecule? `Cc1ncc(F)cc1-n1nc2c(c1C)Nc1ncc3c(Cl)nn(c3n1)CCCO2`
// result 0.89

Value source: patent US11958865B1
